All figures here come from patent US11931424B2.

# Test system: panel of breast cancer cell lines
# Test: Compound A with targeted agents and chemotherapies, 72-hour in vitro proliferation assays
# Assay type: cell-based
# Experimental Conditions: HCC1569; compound A × partner, 72-hour proliferation
Outcome Measure: Synergy Score
# print the numeric value only

Form field Synergy Score, entry CC(C)NC[C@@H](C(=O)N1CCN(c2ncnc3c2[C@H](C)C[C@H]3O)CC1)c1ccc(Cl)cc1 [GDC-0068] : 15.41

The measured Synergy Score associated with N.N.[Cl][Pt][Cl] [Cisplatin] reads 1.82

The compound identified as CCN1CCN(Cc2ccc(Nc3ncc(F)c(-c4cc(F)c5nc(C)n(C(C)C)c5c4)n3)nc2)CC1 [Abemaciclib] registered its Synergy Score at 19.73

Input CC(=O)c1c(C)c2cnc(Nc3ccc(N4CCNCC4)cn3)nc2n(C2CCCC2)c1=O [PD-0332991] . Output Synergy Score: 5.78
